assay: The bioavailability measured as F(%) on rat at dose 30 mg/kg […].; assay type: ADME, organism-based; details: in vivo

smiles-representation	bioavailability
CCN(c1nc(C)cc(C)n1)c1c(Br)cc(OC)cc1OC	26%

---

Target: Corticotropin-releasing factor receptor 1 (Homo sapiens, UniProt P34998)
Sequence (P34998 whole entry): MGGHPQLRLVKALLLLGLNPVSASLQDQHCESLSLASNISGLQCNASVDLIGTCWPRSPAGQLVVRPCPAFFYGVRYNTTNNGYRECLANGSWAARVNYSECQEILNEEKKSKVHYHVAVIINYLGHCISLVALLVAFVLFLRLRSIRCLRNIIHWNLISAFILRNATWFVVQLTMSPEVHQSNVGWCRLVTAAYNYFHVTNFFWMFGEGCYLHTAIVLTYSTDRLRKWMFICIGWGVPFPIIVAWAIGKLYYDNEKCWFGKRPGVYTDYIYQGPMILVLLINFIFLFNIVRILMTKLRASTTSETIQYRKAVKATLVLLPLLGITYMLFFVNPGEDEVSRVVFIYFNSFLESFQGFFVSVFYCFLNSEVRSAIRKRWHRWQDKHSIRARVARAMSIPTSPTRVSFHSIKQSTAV
Assay: Binding affinity for human recombinant corticotropin releasing factor receptor 1
pKi: −log10 of the molar value.
Kind request: treat 8 as inclusive, so pKi at 8 or higher is Yes, anything lower is No.

smiles-representation	cat
C=CCN(CC=C)c1nc(C)nc(N(CC)c2ccc(C(C)C)cc2Br)n1	Yes
CCN(c1nc(C)nc(N(CC2CC2)CC2CC2)n1)c1ccc(N(C)C)cc1C(F)(F)F	Yes
CCN(CC)c1cc(C)nc(N(CC)c2c(Br)cc(C(C)C)cc2SC)n1	No
C=CCN(CC=C)c1nc(C)nc(N(CC)c2ccc(OC(F)(F)F)cc2Br)n1	Yes

---

assay: The Tmax is the time taken to reach maximum concentration was measured in rat at dose 1 mg/kg after peroral administration.; format: ADME, organism-based; set-up: dose 1 mg/kg, route oral; settings: in vivo, po

smiles-representation	u	Tmax
CCN(c1nc(C)nc(N2CCOCC2)n1)c1c(Br)cc(OC)cc1OC	min	18

---

assay: The Tmax is the time taken to reach maximum concentration was measured in dog at dose 5 mg/kg after peroral administration.; format: ADME, organism-based, Canis lupus familiaris; set-up: dose 5 mg/kg, route oral; conditions: in vivo, po

smiles-representation	Tmax
CCN(c1nc(C)nc(N2CCOCC2)n1)c1c(Br)cc(OC)cc1OC	30 min

---

assay: the half life period was measured in rat at dose 30 mg/kg after intravenous administration.; type: ADME, organism-based; set-up: dose 30 mg/kg, route intravenous; settings: in vivo

smiles-representation	half-life (h)
CCN(c1nc(C)cc(C)n1)c1c(Br)cc(OC)cc1OC	5.9

---

assay: The Tmax is the time taken to reach maximum concentration was measured in rat at dose 30 mg/kg after peroral administration.; assay type: ADME, organism-based; parameters: dose 30 mg/kg, route oral; conditions: in vivo, po

smiles-representation	Tmax / h
CCN(c1nc(C)nc(N2CCOCC2)n1)c1c(Br)cc(OC)cc1OC	1.6

---

assay: The maximum concentration of the compound was measured in dog at dose 5 mg/kg after peroral administration.; assay type: ADME, organism-based, Canis lupus familiaris; parameters: dose 5 mg/kg, route oral; settings: in vivo, po

smiles-representation	Cmax / nM
CCN(c1nc(C)nc(N2CCOCC2)n1)c1c(Br)cc(OC)cc1OC	730
